Where do the numbers come from? From PubChem BioAssay (NCI).

Assay: NCI Yeast Anticancer Drug Screen. Data for the mlh1 rad18 strain (AID 175)
Conditions: S. cerevisiae mlh1 rad18 strain growth inhibition; at 50.0 µM
About 79,000 compounds went through this panel and 15% of them were active in at least one assay; those are over-represented in the sample as a whole. Activity calls are given as the source filed them. Cut-off read from the data, not from the text of the source: active = growth inhibition above about 70%; inactive = the rest.
Labels: y (active), n (inactive)

compound | category_label
O=C1CSC(c2cccc(Cl)c2)N1CCN1C(=O)CSC1c1cccc(Cl)c1 (centres undefined) | n
CC(C)=CC1C(CO)C1(C)C (centres undefined) | n
O=C(Nc1ccc(F)cc1)Nc1cccc(C(=O)O)c1 | n
O=C1CC2CC1C1C(=O)OC(=O)C21 (centres undefined) | n
CCCc1ncc(C[n+]2ccccc2C)c(N)n1 | n
Cn1c(=O)[nH]nc(Br)c1=O | n
O=C(CCn1[nH]c(=O)c(Cl)c(Cl)c1=O)NOCCCc1ccccc1 | n
O=C1c2cn[nH]c2C(c2ccccc2)N1c1ccccc1 (centres undefined) | n
COc1cccc2c1C(c1ccc3ccccc3c1)OC2=O (centres undefined) | n
Cc1cc2c(C(C)C)c(O)c(O)c(C=Nc3ccc(N=Nc4ccccc4)cc3)c2c(O)c1-c1c(C)cc2c(C(C)C)c(O)c(O)c(C=Nc3ccc(N=Nc4ccccc4)cc3)c2c1O | n
c1ccc(C2SCc3nc4cc5ccccc5cc4n32)cc1 (centres undefined) | n
CC(C)(OC(=O)c1ccc([N+](=O)[O-])cc1)C1CC1 | n
CCC(=O)COC(C)=O | n
N#C/C(=C\NC(=S)C(N)=S)C(=O)c1ccc2ccccc2c1 | n
CC1=N/C(=C\c2ccc(N)cc2)C(=O)N1Nc1nnc(NN2C(=O)/C(=C/c3ccc(N)cc3)N=C2C)c2ccccc12 | n
OCC(CO)(CO)CO | n
O=C(NCCN1CCCC1)NC1CCCCC1 | n
CN(CCC(=O)c1ccc2ccccc2c1)Cc1ccccc1 | n
COc1ccccc1N=Nc1c(O)n(-c2ccccc2OC)c(=S)n(-c2ccc(I)cc2)c1=O | y
COCCCNc1nc(N)c(C#N)c(C#N)c1C#N | n
O=C1/C(=C/c2ccco2)SC(=S)N1C1c2ccccc2Oc2ccccc21 | n
C/C=C/c1cc(C)cc(C)c1OC(C)CC (centres undefined) | n
COC(=O)C(NC(=O)C(=O)NC(C(=O)OC)C(C)(C)S)C(C)(C)S (centres undefined) | n
Cc1c(Br)[n+](=O)c2ccccc2n1[O-] | n
C=CC[N+](C)(CC=C)CC[N+](C)(CC=C)CC=C | n
Cc1cc([N+](C)(C)C)c(C(C)C)cc1O | n
O=C1NC(=S)S/C1=C/c1cn(-c2ccccc2)nn1 | n
O=C(NO)c1ccc(Cl)cc1Cl | n
O=C(NC(NC(NC(=O)c1ccc([N+](=O)[O-])cc1)c1ccc([N+](=O)[O-])cc1)c1ccc([N+](=O)[O-])cc1)c1ccc([N+](=O)[O-])cc1 (centres undefined) | n
C[n+]1cccc2cc(Br)ccc21 | n
C=COC(=O)c1ccccc1O | n
N#Cc1c2ccccc2cc2c1ccc1ccccc12 | n
COC(=O)CNC(=O)Nc1cc(N2C(=O)ON3C2C(C)(C)N(O)C3(C)C)ccc1C (centres undefined) | n
CC(=O)OCC1OC=CC(OC(C)=O)C1OC(C)=O (centres undefined) | n
Nc1nc(SCC(=O)O)[nH]c(=O)c1N | n
O=C1OC[C@H]2[C@@H]1[C@H]1O[C@@H]2C2=C(CCC2)C1=O | n
COC(=O)C(=O)c1c(C(=O)OC)nc2nnc(N)n2c1-c1ccc(O)c(OC)c1 | n
C/C=N/Nc1ccccc1 | n
O=C(O)c1ccc(CSc2ccccc2C(=O)O)cc1 | n
N#CC1=C(N)N(c2ccccc2)C(c2ccccc2)C1(C#N)C#N (centres undefined) | n
COc1cc2oc(=O)ccc2cc1CC=C(C)C | n
CCCCn1cnc2ccc3nc(-c4ccccc4)c(-c4ccccc4)nc3c2c1=O | n
CCCN1C(=O)c2cc(=O)[nH]c(O)c2C1C (centres undefined) | n
COC(=O)[C@@H]1Cc2ccc(OC)c(c2)OCCC(=O)N1 | n
Cc1cnccc1P(=O)(O)O | n
O=C1c2cccc3cccc(c23)C1(O)S(=O)(=O)O (centres undefined) | n
O=S=Nc1ccc([N+](=O)[O-])cc1Cl | n
CCC(C)C1SCC(=O)N1c1nncs1 (centres undefined) | n
CC(=O)N1CN2C(=O)CCC2c2cc(C)ccc21 (centres undefined) | n

====

Measured growth inhibition by item
Assay: NCI Yeast Anticancer Drug Screen. Data for the mec2-1 strain (AID 157)
Conditions: S. cerevisiae mec2-1 strain, at 50.0 µM, active compounds read high
Description: Growth inhibition of yeast strains with defined genetic alterations is measured as a screen for potential anti-cancer activity. Selected strains with alterations in DNA damage repair or cell cycle control were exposed to compounds and growth inhibition was measured relative to vehicle treated controls. The strain used in this assay is mec2-1
This is part of a sample that, as a whole, favours compounds with a hit. Of some 79,000 tested, about 15% had one in any assay.
property_name: growth inhibition (%)

compound | unit_of_measure | value_observed
C=C1C(=O)O[C@@H]2[C@H]3O[C@]3(C)CCC=C(C)CC[C@@H]12 | % | -7.05
CN(C)Cc1cc(C(=O)c2ccccc2)c(O)cc1O | % | -4.05
Cc1nc(N)c(-c2ccccc2)s1 | % | -15.9
CC(=O)NC1(C#N)c2ccccc2-c2ccccc21 | % | 4.2
CN(C(=O)CCCO)c1cc([N+](=O)[O-])ccc1OCc1ccccc1 | % | 2.8
O=[N+]([O-])c1ccc(Cl)cc1N/N=C/c1ccnc2ccccc12 | % | -56.1
O=C(Nc1cccc(Cl)c1)c1ccc(Cl)cc1 | % | 24.2
COc1ccccc1C1CCCCC1OS(=O)(=O)c1ccc(C)cc1 (stereo unspecified) | % | 3.45
O=C(NCCO)Nc1ccc2c(c1)OCCOCCOCCOCCO2 | % | 4.8
CC(C)(C)c1nc2c(o1)C(=Nc1ccc(F)cc1)c1ccccc1C2=O | % | 3.15
CCN(CC)/C(C=[N+]=[N-])=N\C(N)=N\S(=O)(=O)c1ccc(OC)cc1 | % | -13.9

====

Experiment: NCI Yeast Anticancer Drug Screen. Data for the mec2-1 strain (AID 157)
Conditions: S. cerevisiae mec2-1 strain, at 50.0 µM, active compounds read high
The panel holds about 79,000 compounds, 15% with a hit somewhere; the sample as a whole holds those more often.
Quick list: growth inhibition per entry.

compound | unit_of_measure | growth inhibition
OCC1CCCC1 | % | -18.4
CC(C)(C)n1c(=O)n(-c2ccccc2)n(C(C)(C)C)c1=O | % | -11.8
Cn1c(C(F)(F)F)nc2nc(Cl)c(Cl)nc21 | % | 0.05
O=C(CC[n+]1ccccc1)Nc1ccc(F)cc1F | % | -1.55
CC(=O)O[C@H]1CC[C@]2(C)C3CC[C@]4(C)C([C@H](C)CCCC(C)C)CCC4[C@]3(/C=N/O)n3c(=O)n(-c4ccccc4)c(=O)n3[C@]2(/C=N\O)C1 (stereo partly drawn) | % | 35.2
COc1cc2nncc(SCc3ccc(Cl)cc3Cl)c2cc1OC | % | 2.9
CCOc1ccc(C(C)c2cc3c(cc2OCCO)OCO3)cc1 (stereo not drawn) | % | 29.2
Cc1ccc2c(c1)Nc1ccccc1P2(=O)O | % | -3.15
CCC1=NS(=O)(=O)c2c(ncn2C)N1 | % | 8.55
Cc1[nH]c(=O)[nH]c(=O)c1N | % | -10.4
c1ccc2c(c1)cc1ccc3cc4ccccc4c4nnc2c1c34 | % | -7.3
C[n+]1ccccc1C(O)C(O)c1cccc[n+]1C (stereo not drawn) | % | 1.65
Cc1ccccc1/C=C1/N=C(c2ccccc2)OC1=O | % | -17.4
Cc1ccc(C2(O)CCCCC2)cc1 | % | -8.45
COC(=O)CCNC(C(=O)O)C(C)(C)SCCC(=O)OC (stereo not drawn) | % | -19.1
CC12CCC(=O)OC1(C)OC(=O)CC2 (stereo not drawn) | % | 17.1
Cc1ccc(S(=O)(=O)N/N=C/c2cc([N+](=O)[O-])cc(I)c2O)cc1 | % | -3.6
CC(CS(=O)(=O)Cc1ccccc1)C(N)=O (stereo not drawn) | % | 38.1
Cc1c(COC(=O)NC(C)C)c(COC(=O)NC(C)C)c2n1CCS2(=O)=O | % | -20.8
C=CCC[P+](c1ccccc1)(c1ccccc1)c1ccccc1 | % | 34.1
CC(CCc1ccccc1)NC(=O)c1ccccc1 (stereo not drawn) | % | -40.1
CCCCCCCCCCCCCCCCOC(=O)c1cc([N+](=O)[O-])cc([N+](=O)[O-])c1Sc1ncnc2nc[nH]c12 | % | -7.8
Brc1ccc(Br)s1 | % | -0.1
NC1=Nc2ccccc2Sc2nncn21 | % | -43.9
O=C(CCl)NCCCCCNC(=O)CCl | % | 2.85
CC12CC3CC(C)(C1)CC(N=[N+]=[N-])(C3)C2 | % | -9.6
O=C1CC(N2CCOCC2)c2ccccc21 (stereo not drawn) | % | 11.1
CC1(c2ccc(Cl)cc2)NC(=O)N(CC(N)=O)C1=O (stereo not drawn) | % | -0.1
O=C1[C@@H](c2ccc(Cl)cc2)[C@H]2CC=C[C@H]2N1O | % | -21.4
CC(O)C(=O)N1CCOCC1 (stereo not drawn) | % | -3.65
CN(C)CCCOc1ccc(/C=C2/CCC/C(=C/c3ccc(OCCCN(C)C)cc3)C2=O)cc1 | % | 14.8
CCCCNc1cccc2ccccc12 | % | 23.1
Cc1ncc2c[n+]([O-])ccn12 | % | 10.9
O=C(O)Cn1c[n+](NC(=O)Cc2ccccc2)cn1 | % | -25.4
CC1NC(=O)C2Cc3ccc(O)c(c3)Oc3cccc(c3)C(O)C(C(=O)N2C)N(C)C(=O)C(C)NC(=O)C(Cc2ccc(O)c(O)c2)N(C)C(=O)C(C)NC1=O (stereo not drawn) | % | -19.3
COc1ccc2c(c1)c(CC(=O)O)c(Br)n2Cc1ccccc1 | % | 33.4
c1ccc(C2=NC3CCCCC3S2)cc1 (stereo not drawn) | % | -10.6
NC(=NCc1ccncc1)N/N=C\c1ccnc2ccccc12 | % | 10.9
COc1ccc([N+](=O)[O-])c2ncncc12 | % | -12
CS(=O)(=O)N1C=CC2C(C=C1)C1(c3ccccc3)OC2(c2ccccc2)c2ccccc21 (stereo not drawn) | % | -9.25
C(=C\c1cc(CCc2nc3ccccc3[nH]2)[nH]n1)/c1ccccc1 | % | -16.5
CO[C@H]1C[C@H]2[C@@H]3CCC4=CC(=O)C=C[C@]4(C)[C@@]3(F)[C@@H](O)C[C@]2(C)[C@@]1(O)C(=O)COC(C)=O | % | -0.35
CCN(CC)C(=O)COc1ccc(Cl)c(C)c1 | % | 3.45
COc1cc(C2C(C(=O)O)=C(COC(C)=O)Oc3cc4c(cc32)OCO4)cc(OC)c1OC (stereo not drawn) | % | -15.4
COc1ccc2nccc(/C=C/CC3CCN(C(C)=O)CC3)c2c1 | % | 29.4
CCN=C(N(CC)CC)N(CC)CC | % | 10.2
NC(=O)C(Cc1ccc(O)cc1)NC(=O)c1cccnc1 (stereo not drawn) | % | 0.7
Cc1ccc(S(=O)(=O)c2scc(-c3ccccc3)c2C)cc1 | % | -57.8
